Numbers sourced from ChEMBL document CHEMBL3045644.

- System: Rattus norvegicus
- protocol details: Anti-inflammatory activity in Charles Foster albino Rattus norvegicus (rat) assessed as inhibition of carrageenan-induced paw edema at 50 mg/kg, po […] measured up to 3 hr relative to control
- Format: functional
# inhibition in vivo at 50 mg/kg >= 20% gives T, anything below gives F

>  <compound>
CN(C)c1ccc(C2CC(c3cccnc3)=NN2c2ccccc2)cc1 (configuration not stated)

>  <class label>
T

$$$$
>  <compound>
CN(C)c1ccc(C2CC(c3ccccn3)=NN2c2ccccc2)cc1 (configuration not stated)

>  <class label>
T

$$$$
>  <compound>
CC(C)Cc1ccc(C(C)C(=O)O)cc1 (configuration not stated) [IBUPROFEN]

>  <class label>
T

$$$$
>  <compound>
CN(C)c1ccc(C2CC(c3ccncc3)=NN2)cc1 (configuration not stated)

>  <class label>
F

$$$$
>  <compound>
COc1ccc(OC)c(C2CC(c3ccncc3)=NN2c2ccccc2)c1 (configuration not stated)

>  <class label>
F

$$$$
>  <compound>
CN(C)c1ccc(C2CC(c3ccccn3)=NN2)cc1 (configuration not stated)

>  <class label>
F

$$$$
>  <compound>
CN(C)c1ccc(C2CC(c3cccnc3)=NN2)cc1 (configuration not stated)

>  <class label>
T

$$$$
>  <compound>
COc1ccc(OC)c(C2CC(c3cccnc3)=NN2)c1 (configuration not stated)

>  <class label>
F

$$$$
>  <compound>
COc1ccc(OC)c(C2CC(c3ccncc3)=NN2)c1 (configuration not stated)

>  <class label>
F

$$$$
>  <compound>
COc1cc(-c2nc(-c3ccccn3)no2)ccc1O

>  <class label>
T

$$$$
>  <compound>
COc1ccc(OC)c(-c2nc(-c3cnccn3)no2)c1

>  <class label>
F

$$$$
>  <compound>
COc1cc(-c2nc(-c3cnccn3)no2)ccc1O

>  <class label>
T

$$$$
